# ASSAYED SYSTEM: Puf6-PUM (Saccharomyces cerevisiae, UniProt Q04373 161-656)
# Sequence (Q04373 161-656): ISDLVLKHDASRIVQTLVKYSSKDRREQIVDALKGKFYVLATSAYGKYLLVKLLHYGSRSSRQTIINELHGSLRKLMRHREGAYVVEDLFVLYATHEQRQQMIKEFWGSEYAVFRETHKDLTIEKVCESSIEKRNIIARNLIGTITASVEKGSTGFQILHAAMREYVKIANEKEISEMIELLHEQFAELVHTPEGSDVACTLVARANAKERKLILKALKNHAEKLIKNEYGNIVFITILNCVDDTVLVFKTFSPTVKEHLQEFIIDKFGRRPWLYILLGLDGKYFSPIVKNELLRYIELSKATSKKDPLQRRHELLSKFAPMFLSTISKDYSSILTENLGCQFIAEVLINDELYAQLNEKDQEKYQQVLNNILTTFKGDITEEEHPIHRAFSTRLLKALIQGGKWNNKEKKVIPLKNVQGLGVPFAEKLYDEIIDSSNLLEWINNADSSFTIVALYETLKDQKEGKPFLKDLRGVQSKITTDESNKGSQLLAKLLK
# TEST NAME: fluorescence anisotropy; 27 C; buffer promoting tertiary contact; Anisotropy: 2.5 nM Cy5-RNA, 0.16 nM-20 uM protein, 27 C (stated for H68), buffer composition not in the material; FRET: 20 mM HEPES pH 7.4, 100 mM K+ (116 mM KCl in the supplement), 0-100 mM Mg2+
# TEST CONTEXT: protein: recombinant; (pET47-Puf6 (161-656)); label: Cy5 (sCy5); hairpin with GAAA tetraloop
pKd: −log10 of the molar value.
MEASURE NAME: pKd

Consider the binder UGAAGAAAUUCA (structured_RNA) [H68 RNA] and give its measured pKd.
~5.00
